# target: Sodium-dependent noradrenaline transporter (Homo sapiens, UniProt P23975)
# Sequence (P23975 whole entry): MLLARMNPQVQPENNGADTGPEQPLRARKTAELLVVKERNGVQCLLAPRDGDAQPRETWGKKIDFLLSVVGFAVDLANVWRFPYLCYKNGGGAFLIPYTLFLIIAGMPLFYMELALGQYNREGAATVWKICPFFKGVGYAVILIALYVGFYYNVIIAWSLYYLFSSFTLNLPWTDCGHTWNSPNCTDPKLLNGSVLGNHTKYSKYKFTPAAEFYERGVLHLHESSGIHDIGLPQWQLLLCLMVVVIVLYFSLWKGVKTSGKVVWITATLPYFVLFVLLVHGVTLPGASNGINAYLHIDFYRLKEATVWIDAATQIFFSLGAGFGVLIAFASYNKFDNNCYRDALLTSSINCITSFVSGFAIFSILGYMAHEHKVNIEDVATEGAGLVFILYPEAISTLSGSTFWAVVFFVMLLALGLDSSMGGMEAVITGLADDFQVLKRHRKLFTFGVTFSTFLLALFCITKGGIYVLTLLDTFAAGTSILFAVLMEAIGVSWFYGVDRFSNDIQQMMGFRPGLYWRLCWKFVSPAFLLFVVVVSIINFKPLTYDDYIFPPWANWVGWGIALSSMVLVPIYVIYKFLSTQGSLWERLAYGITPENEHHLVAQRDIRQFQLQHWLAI
# method-notes: biochemical
Each entry below carries its recorded IC50.
measure: IC50 (nM)

>>> measured_number("O=S1(=O)N(CC[C@@H]2CNCCO2)c2ccccc2N1c1ccccc1F")
5
>>> measured_number("O=S1(=O)N(CC2CNCCO2)c2ccccc2N1c1ccccc1 (racemic)")
74
>>> measured_number("O=S1(=O)N(CCC2CNCCO2)c2ccc(F)cc2N1c1ccccc1F (configuration not stated)")
209
>>> measured_number("CNC[C@H](CCN1c2ccccc2N(c2ccccc2)S1(=O)=O)OC")
103
>>> measured_number("CNC[C@@H](CCN1c2ccccc2N(c2ccccc2)S1(=O)=O)OC")
13
>>> measured_number("O=S1(=O)N(CC[C@@H]2CNCCO2)c2ccccc2N1c1ccccc1")
5
>>> measured_number("O=S1(=O)N(CC[C@H]2CNCCO2)c2ccccc2N1c1ccccc1")
9
>>> measured_number("O=S1(=O)N(CCC2CNCCO2)c2c(F)cccc2N1c1ccccc1F (configuration not stated)")
5
>>> measured_number("O=S1(=O)N(CCC2CCCNC2)c2ccccc2N1c1ccccc1 (racemic)")
30
>>> measured_number("O=S1(=O)N(CCC2CNCCO2)c2cccc(F)c2N1c1ccccc1F (configuration not stated)")
13
>>> measured_number("CN1CCOC(CN2c3ccccc3N(c3ccccc3)S2(=O)=O)C1 (racemic)")
2300
>>> measured_number("O=S1(=O)N(CCC2CNCCO2)c2ccccc2N1c1ccccc1 (racemic)")
7
>>> measured_number("O=S1(=O)N(CC[C@@H]2CNCCO2)c2ccccc2N1c1ccc(F)cc1")
283
>>> measured_number("O=S1(=O)N(CC[C@@H]2CNCCO2)c2ccccc2N1c1c(F)cc(F)cc1F")
80
>>> measured_number("COc1cccc(N2c3ccccc3N(CC[C@@H]3CNCCO3)S2(=O)=O)c1")
99
>>> measured_number("O=S1(=O)N(CC[C@@H]2CNCCO2)c2ccccc2N1c1ccc(F)cc1F")
143
>>> measured_number("O=S1(=O)N(CCC2CNCCO2)c2cc(F)ccc2N1c1ccccc1F (configuration not stated)")
8

src = ChEMBL document CHEMBL1828571
